These data points were gathered from patent US20260250371A1.

Here the recorded log10 of Kd is given for each entry.
Target: T1, recombinant human FGF23 (R179Q) (human, UniProt Q9GZV9 25-251)
T1 construct: also called rhFGF23(R179Q); hFGF23(R179Q)
T1 sequence (looked up): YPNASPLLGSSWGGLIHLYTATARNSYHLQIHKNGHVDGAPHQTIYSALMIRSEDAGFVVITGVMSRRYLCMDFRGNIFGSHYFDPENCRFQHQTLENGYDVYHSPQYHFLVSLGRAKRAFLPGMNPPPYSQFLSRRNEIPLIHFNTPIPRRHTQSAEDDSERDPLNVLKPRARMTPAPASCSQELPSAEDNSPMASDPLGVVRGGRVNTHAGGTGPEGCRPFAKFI
Assay: SPR, antibody captured on hIgG chip, rhFGF23(R179Q) analyte
Could you please treat all values as log10 of Kd in pM?

Guide cases for log10 of Kd, answers given:
Binder | log10 of Kd
UGX130 (antibody, human IgG1, kappa, V domains shown, also called LC:S53E) VH: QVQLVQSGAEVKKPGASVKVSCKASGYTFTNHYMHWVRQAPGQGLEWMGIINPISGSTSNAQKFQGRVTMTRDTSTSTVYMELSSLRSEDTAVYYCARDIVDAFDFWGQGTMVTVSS VL: AIQLTQSPSSLSASVGDRVTITCRASQGISSALVWYQQKPGKAPKLLIYDASELESGVPSRFSGSGSGTDFTLTISSLQPEDFATYYCQQFNDYFTFGPGTKVDIKR | 1.54
UGX182 (antibody, human IgG1, kappa, V domains shown, also called HC:S59D, HC:V101I; S59D/V101I) VH: QVQLVQSGAEVKKPGASVKVSCKASGYTFTNHYMHWVRQAPGQGLEWMGIINPISGSTDNAQKFQGRVTMTRDTSTSTVYMELSSLRSEDTAVYYCARDIIDAFDFWGQGTMVTVSS VL: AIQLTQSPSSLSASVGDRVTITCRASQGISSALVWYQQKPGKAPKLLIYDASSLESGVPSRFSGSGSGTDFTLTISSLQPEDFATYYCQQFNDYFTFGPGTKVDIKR | 0.98

Recorded log10 of Kd of UGX131 (antibody, human IgG1, kappa, V domains shown, also called LC:S53F) VH: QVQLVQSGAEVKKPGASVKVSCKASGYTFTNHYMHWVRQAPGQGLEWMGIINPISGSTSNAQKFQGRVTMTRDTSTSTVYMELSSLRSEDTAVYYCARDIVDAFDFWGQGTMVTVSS VL: AIQLTQSPSSLSASVGDRVTITCRASQGISSALVWYQQKPGKAPKLLIYDASFLESGVPSRFSGSGSGTDFTLTISSLQPEDFATYYCQQFNDYFTFGPGTKVDIKR , please.
1.59

Recorded log10 of Kd of UGX192 (antibody, human IgG1, kappa, V domains shown, also called HC:N52F, HC:V101I) VH: QVQLVQSGAEVKKPGASVKVSCKASGYTFTNHYMHWVRQAPGQGLEWMGIIFPISGSTSNAQKFQGRVTMTRDTSTSTVYMELSSLRSEDTAVYYCARDIIDAFDFWGQGTMVTVSS VL: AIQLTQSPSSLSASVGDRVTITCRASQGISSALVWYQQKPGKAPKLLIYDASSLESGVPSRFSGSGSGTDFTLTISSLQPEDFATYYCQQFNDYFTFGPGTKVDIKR , please.
4.31

Recorded log10 of Kd of UGX133 (antibody, human IgG1, kappa, V domains shown, also called UGX022; LC:S53Y) VH: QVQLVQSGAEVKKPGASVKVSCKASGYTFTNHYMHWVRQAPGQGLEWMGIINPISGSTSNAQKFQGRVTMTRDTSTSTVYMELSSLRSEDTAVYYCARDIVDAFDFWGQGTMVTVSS VL: AIQLTQSPSSLSASVGDRVTITCRASQGISSALVWYQQKPGKAPKLLIYDASYLESGVPSRFSGSGSGTDFTLTISSLQPEDFATYYCQQFNDYFTFGPGTKVDIKR , please.
2.31
